Numbers sourced from paper PMC11721293.

test: Pharmacokinetics after single IP administration; details: K18-hACE2(Tg) C57Bl/6J, mouse, in vivo, 40 mg/kg, C24h, Kidney, single IP
Reported Property: concentration at 24 h (µM)
Only the number, expressed in µM, is required.

Kindly note the recorded concentration at 24 h for NC(=O)N1CCC(CC(=O)N2CCC([C@H]3c4ncc(Br)cc4CCc4cc(Cl)cc(Br)c43)CC2)CC1 , which is 8.24

* * *

test: Pharmacokinetics after PO administration; conditions: K18-hACE2(Tg) C57Bl/6J, mouse, liver, 25 mg/kg
Reported Property: Tmax (h)
# output: bare number, implied unit h

The molecule listed as NC(=O)N1CCC(CC(=O)N2CCC([C@H]3c4ncc(Br)cc4CCc4cc(Cl)cc(Br)c43)CC2)CC1 shows Tmax equal to 7

* * *

experiment: Pharmacokinetics after single IP administration; details: K18-hACE2(Tg) C57Bl/6J, mouse, in vivo, 40 mg/kg, C24h, Heart, single IP
Reported Property: concentration at 24 h (µM)
Give just the number in µM; leave the unit off.

compound NC(=O)N1CCC(CC(=O)N2CCC([C@H]3c4ncc(Br)cc4CCc4cc(Cl)cc(Br)c43)CC2)CC1 , concentration at 24 h observed: 11.4

* * *

test: Pharmacokinetics after PO administration; conditions: K18-hACE2(Tg) C57Bl/6J, mouse, in vivo, 25 mg/kg, t1/2, Heart, PO
Reported Property: half-life (h)
Give the value, in units of h, as a plain number.

Reported half-life of NC(=O)N1CCC(CC(=O)N2CCC([C@H]3c4ncc(Br)cc4CCc4cc(Cl)cc(Br)c43)CC2)CC1 [LNF, lonafarnib] : 2.2

* * *

test: Pharmacokinetics after single IP administration; details: K18-hACE2(Tg) C57Bl/6J, mouse, kidney, 40 mg/kg
Reported Property: Tmax (h)
All answers are understood in h, so give the number only.

Kindly note the recorded Tmax for NC(=O)N1CCC(CC(=O)N2CCC([C@H]3c4ncc(Br)cc4CCc4cc(Cl)cc(Br)c43)CC2)CC1 , which is 1

* * *

test: Pharmacokinetics after single IP administration; conditions: K18-hACE2(Tg) C57Bl/6J, mouse, liver, 40 mg/kg
Reported Property: AUC(0-inf) (µM·h)
Just the number please, in µM·h, no unit attached.

For reference, reported AUC(0-inf) for NC(=O)N1CCC(CC(=O)N2CCC([C@H]3c4ncc(Br)cc4CCc4cc(Cl)cc(Br)c43)CC2)CC1 [LNF, lonafarnib] stands at 3060

* * *

assay: Pharmacokinetics after PO administration; details: K18-hACE2(Tg) C57Bl/6J, mouse, heart, 25 mg/kg
Reported Property: Cmax
Express your answer as a number followed by its unit.

Briefly, Cmax measured for NC(=O)N1CCC(CC(=O)N2CCC([C@H]3c4ncc(Br)cc4CCc4cc(Cl)cc(Br)c43)CC2)CC1 : 8.6 µM

* * *

assay: Pharmacokinetics after single IP administration; details: K18-hACE2(Tg) C57Bl/6J, mouse, in vivo, 40 mg/kg, t1/2, Brain, single IP
Reported Property: half-life (h)
Respond numerically; units are h and should not be typed.

Notebook: NC(=O)N1CCC(CC(=O)N2CCC([C@H]3c4ncc(Br)cc4CCc4cc(Cl)cc(Br)c43)CC2)CC1 [LNF, lonafarnib] , half-life read as 8.3
